biological target: GalNAc(a1-3)GalNAc(b1-3)Gal(a1-4)Gal(b1-4)GlcNAc; experiment: glycan array binding signal (z-score within array); higher = stronger binding; settings: glycan notation: IUPAC condensed, linker removed
The entries come from a sample that favours the strongest signals as a whole.
I'd be grateful if you could share measured glycan array binding signal (z-score) for these entries.
Answer field: number only, no words.

Exercise: Fill in: glycan array binding signal (z-score) of SP16665A-bot-344-23-344 (Bacteroides ovatus) (protein) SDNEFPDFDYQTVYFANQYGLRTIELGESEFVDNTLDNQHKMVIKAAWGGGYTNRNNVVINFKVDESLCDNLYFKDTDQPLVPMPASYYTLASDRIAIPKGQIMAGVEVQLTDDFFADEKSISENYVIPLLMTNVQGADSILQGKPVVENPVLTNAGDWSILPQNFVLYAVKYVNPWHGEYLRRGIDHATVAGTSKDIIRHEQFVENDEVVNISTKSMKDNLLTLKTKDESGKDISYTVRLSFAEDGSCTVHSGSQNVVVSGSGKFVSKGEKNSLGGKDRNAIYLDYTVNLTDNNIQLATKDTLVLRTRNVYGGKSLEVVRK is ___
Key: -0.21

Exercise: Fill in: glycan array binding signal (z-score) of MGL (Homo sapiens), Q8IUN9 (protein) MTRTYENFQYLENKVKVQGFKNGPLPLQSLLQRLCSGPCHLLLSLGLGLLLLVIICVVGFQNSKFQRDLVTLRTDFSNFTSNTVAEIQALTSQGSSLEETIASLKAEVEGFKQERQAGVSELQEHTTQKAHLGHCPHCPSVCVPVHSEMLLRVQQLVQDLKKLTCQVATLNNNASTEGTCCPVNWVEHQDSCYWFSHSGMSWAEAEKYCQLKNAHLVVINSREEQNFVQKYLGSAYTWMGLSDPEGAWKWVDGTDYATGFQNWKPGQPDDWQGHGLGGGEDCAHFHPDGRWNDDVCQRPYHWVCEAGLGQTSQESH is ___
Key: 0.634

All values here come from the supplement of paper PMC8728848.
